- testName: Selectivity index, ratio of IC50 for human Hep2 cells to EC50 for respiratory syncytial virus A2
- Format: toxicity, cell-based, HEp-2
- appliedConditions: Hep2 cells, read-out: Ratio IC50/EC50
observationType: selectivity ratio
Form field (numeric): enter value without unit.

The cases that follow already have their selectivity ratio on record.
INSERT INTO results (molecule, observationtype, recordedmeasurement) VALUES
  ('COC(=O)C1=CO[C@@H](O[C@@H]2O[C@H](CO)[C@@H](O)[C@H](O)[C@H]2O)[C@H]2[C@@H]1[C@H](OC(=O)/C=C\c1ccc(O)cc1)C[C@]2(C)OC(C)=O', 'selectivity ratio', 17),
  ('COC(=O)C1=CO[C@@H](O[C@@H]2O[C@H](CO)[C@@H](O)[C@H](O)[C@H]2O)[C@H]2[C@@H]1[C@H](OC(=O)/C=C/c1ccc(O)cc1)C[C@]2(C)OC(C)=O', 'selectivity ratio', 17);

Now turn to the next molecule.
query: Recorded selectivity ratio of C[C@@H]1O[C@@H](O[C@@H]2[C@@H](O)[C@H](OCCc3ccc(O)c(O)c3)O[C@H](CO)[C@H]2OC(=O)/C=C/c2ccc(O)c(O)c2)[C@H](O)[C@H](O)[C@H]1O [ACETOSIDE] , please.
result: 85.4
